Origin of the recorded values: PubChem BioAssay AID328

System: BDF1 mice, P388 leukemia ip, median survival T/C
Assay: NCI In Vivo Anticancer Drug Screen. Data for tumor model P388 Leukemia (intraperitoneal) in B6D2F1 (BDF1) mice
Details: endpoint: median survival time; dose: 200.0 mg/kg/injection; schedule: Q04DX003 (ip); vehicle: Klucel (hydroxypropylcellulose) (HPC)
Inconclusive results and toxic doses are left out. The calls were made as follows: active = survival T/C of 150% or more; inactive = T/C below 125% in these data.
// classify into active, inactive

Solved cases below.
CCSc1nc(=S)cc(C)[nH]1    inactive
CC(=O)Nc1cc(C)c(C)cc1[N+](=O)[O-]    inactive
c1ccc2c(c1)C1CC(N3CCCCC3)C2c2ccccc21 (stereo unspecified)    inactive
CC(C)OC(=O)Oc1cccc2c1C(=O)c1ccccc1C2=O    inactive
CC(C)CC(C)CC(O)CC(C)C (stereo unspecified)    inactive

Request: What did the test return for OC(Cc1ccnc2ccccc12)C(Cl)(Cl)Cl (stereo unspecified) ?
Response: inactive

Request: # iterate: CC1(C)C2CC3C(=CCCC3(Cl)C#N)C1C2 (stereo unspecified)
Response: inactive

Request: # iterate: `Cc1c([N+](=O)[O-])c(C)c([N+](=O)[O-])c(C(C)(C)C)c1[N+](=O)[O-]`
Response: inactive

Request: # iterate: `O=C(Nc1cccc(Cl)c1)c1cc(N=Nc2ccc([N+](=O)[O-])cc2Cl)ccc1O`
Response: active

Request: # iterate: CC(=O)OC1CCC2(C)C(CCC3(C)C2CC=C2C4C(C)C(C)CCC4(C)CCC23C)C1(C)C (stereo unspecified)
Response: inactive

Request: # iterate: CC1(C)C=C(C(Br)c2cccc(Br)c2)C(=O)c2ccccc21 (stereo unspecified)
Response: inactive
